tested on: LnCaP cells; assay: Tumor cell viability, ATPlite; assay type: cell-based; settings: Homo sapiens, 72 h, read-out: EC50, decrease in cell viability
reported_property: EC50

>  <smiles_representation>
COc1c(C)cnc(CN(CCc2ccccc2)c2cc(Cl)nc(N)n2)c1C

>  <measured_result>
3.8 µM

$$$$

----------
Measured IC50 by item
target: human full length Hsp90 (Homo sapiens); construct: amino acid residues 1 to 732 of human Hsp90 (GenBank: BC121062.2); made in house; host or cells: E. coli BL21DE3 (pET15b); assay: Fluorescence polarization Hsp90 competitive binding assay (GM-FITC displacement); details: Table II, binding affinities ranked by potency; read-out: IC50

>  <smiles_representation>
Cc1cnc(CN(CCc2ccc(Cl)cc2)c2cc(Cl)nc(N)n2)c(C)c1Cl

>  <measurement_units>
µM

>  <cmp>
=

>  <IC50>
0.194

$$$$
>  <smiles_representation>
Nc1nc(Cl)cc(Nc2ccc3c(c2)OCO3)n1

>  <measurement_units>
µM

>  <cmp>
>

>  <IC50>
10

$$$$
>  <smiles_representation>
CCOc1ccc(-c2ccc(CNc3cc(Cl)nc(N)n3)cc2)cc1

>  <measurement_units>
µM

>  <cmp>
>

>  <IC50>
10

$$$$
>  <smiles_representation>
CCCN(Cc1ncc(C)c(OC)c1C)c1cc(Cl)nc(N)n1

>  <measurement_units>
µM

>  <cmp>
=

>  <IC50>
1.1

$$$$
>  <smiles_representation>
Nc1nc(Cl)cc(NCc2ccc(Oc3ccccc3)cc2)n1

>  <measurement_units>
µM

>  <cmp>
>

>  <IC50>
10

$$$$
>  <smiles_representation>
COc1c(C)cnc(CN(CCc2ccccc2)c2cc(Cl)nc(N)n2)c1C

>  <measurement_units>
µM

>  <cmp>
=

>  <IC50>
0.255

$$$$
>  <smiles_representation>
COc1c(C)cnc(CN(C(C)=O)c2cc(Cl)nc(N)n2)c1C

>  <measurement_units>
µM

>  <cmp>
>

>  <IC50>
32

$$$$
>  <smiles_representation>
COc1c(C)cnc(CN(C(=O)CCCCl)c2cc(Cl)nc(N)n2)c1C

>  <measurement_units>
µM

>  <cmp>
>

>  <IC50>
32

$$$$
>  <smiles_representation>
COc1c(C)cnc(CNc2cc(Cl)nc(N)n2)c1C

>  <measurement_units>
µM

>  <cmp>
=

>  <IC50>
4

$$$$

----------
biological target: human full length Hsp90 (Homo sapiens, UniProt P07900)
reported_property: Ki (nM)

>  <smiles_representation>
CCOc1ccc(-c2ccc(CNc3cc(Cl)nc(N)n3)cc2)cc1

>  <cmp>
>

>  <measured_result>
2500

$$$$
>  <smiles_representation>
Nc1nc(Cl)cc(NCc2ccc(-c3ccc(Cl)cc3F)cc2)n1

>  <cmp>
>

>  <measured_result>
2500

$$$$
>  <smiles_representation>
Cc1cnc(CN(CCc2ccc(Cl)cc2)c2cc(Cl)nc(N)n2)c(C)c1Cl

>  <cmp>
=

>  <measured_result>
49

$$$$
>  <smiles_representation>
COc1c(C)cnc(CN(CCc2cccc(Br)c2)c2cc(Cl)nc(N)n2)c1C

>  <cmp>
=

>  <measured_result>
24

$$$$
>  <smiles_representation>
Nc1nc(Cl)cc(NCc2ccc(-c3ccccc3)cc2)n1

>  <cmp>
>

>  <measured_result>
2500

$$$$
>  <smiles_representation>
Nc1nc(Cl)cc(NCc2ccc(Oc3ccccc3)cc2)n1

>  <cmp>
>

>  <measured_result>
2500

$$$$
>  <smiles_representation>
Cc1cc(C)cc(CNc2cc(C(F)(F)F)nc(N)n2)c1

>  <cmp>
>

>  <measured_result>
2500

$$$$
>  <smiles_representation>
COc1c(C)cnc(CN(C(=O)C(C)C)c2cc(Cl)nc(N)n2)c1C

>  <cmp>
=

>  <measured_result>
3480

$$$$
>  <smiles_representation>
COc1cc(CNc2cc(Cl)nc(N)n2)cc(OC)c1OC

>  <cmp>
>

>  <measured_result>
2500

$$$$
>  <smiles_representation>
COc1cccc2c1ccn2-c1cc(N)c(C(N)=O)c(NC2CCOCC2)c1

>  <cmp>
>

>  <measured_result>
2500

$$$$
>  <smiles_representation>
COc1c(C)cnc(CN(C(=O)CC(C)(C)C)c2cc(Cl)nc(N)n2)c1C

>  <cmp>
=

>  <measured_result>
7500

$$$$
>  <smiles_representation>
CCCC(=O)N(Cc1ncc(C)c(OC)c1C)c1cc(Cl)nc(N)n1

>  <cmp>
=

>  <measured_result>
7500

$$$$
>  <smiles_representation>
Cc1cnc(CN(C)c2cc(Cl)nc(N)n2)c(C)c1Br

>  <cmp>
>

>  <measured_result>
8000

$$$$
>  <smiles_representation>
C=CCN(Cc1ncc(C)c(OC)c1C)c1cc(Cl)nc(N)n1

>  <cmp>
=

>  <measured_result>
718

$$$$
>  <smiles_representation>
Cc1cnc(CNc2cc(Cl)nc(N)n2)c(C)c1Cl

>  <cmp>
=

>  <measured_result>
300

$$$$
>  <smiles_representation>
COc1c(C)cnc(CN(CCCO)c2cc(Cl)nc(N)n2)c1C

>  <cmp>
=

>  <measured_result>
343

$$$$
>  <smiles_representation>
COc1c(C)cnc(CN(CCc2ccc(Cl)cc2)c2cc(Cl)nc(N)n2)c1C

>  <cmp>
=

>  <measured_result>
78

$$$$
>  <smiles_representation>
COc1c(C)cnc(CN(C(C)=O)c2cc(Cl)nc(N)n2)c1C

>  <cmp>
>

>  <measured_result>
8000

$$$$
>  <smiles_representation>
COc1c(C)cnc(CN(Cc2ccccc2)c2cc(Cl)nc(N)n2)c1C

>  <cmp>
=

>  <measured_result>
553

$$$$
>  <smiles_representation>
COc1ccc(CNc2ccnc(N)n2)cc1OC

>  <cmp>
>

>  <measured_result>
2500

$$$$

----------
System: R127
Experiment: Efficacy in ovarian cancer cells, ADP-GLO
Format: cell-based
Experimental: The effect of SBI-0640725 on cell viability was determined by measuring cellular dehydrogenase activity (U251MG and MBA-MD-231 cells) or by measuring ADP levels (HepG2) after treating cells for 72 hours with increasing concentrations of SBI-0640725. To measure dehydrogenase activity, CCK-8 kit reagent (Dojindo) was added to the wells and incubated for 2 hours, after which absorbance was measured at 450 nm using a Synergy HT micro-titer plate reader (Biotek). […]
pEC50: −log10 of the molar value.

>  <smiles_representation>
COc1c(C)cnc(CN(CCc2ccc(F)cc2)c2cc(Cl)nc(N)n2)c1C

>  <pEC50>
6.39

$$$$

----------
target: human full length Hsp90 (Homo sapiens); construct: amino acid residues 1 to 732 of human Hsp90 (GenBank: BC121062.2); made in house; host or cells: E. coli BL21DE3 (pET15b); assay: Fluorescence polarization Hsp90 competitive binding assay (GM-FITC displacement); settings: Table II, binding affinities ranked by potency; read-out: IC50
pIC50: −log10 of the molar value.
reported_property: pIC50

>  <compound>
Nc1nc(Cl)cc(NCc2ccc(-c3ccccc3)cc2)n1 [SBI-0633826]

>  <cmp>
<

>  <measured_result>
5.00

$$$$
>  <compound>
COc1c(C)cnc(CN(CCCO)c2cc(Cl)nc(N)n2)c1C [SBI-0639349]

>  <cmp>
=

>  <measured_result>
5.86

$$$$
>  <compound>
C=CCN(Cc1ncc(C)c(OC)c1C)c1cc(Cl)nc(N)n1 [SBI-0639355]

>  <cmp>
=

>  <measured_result>
5.54

$$$$
>  <compound>
COc1cc(NCc2cc(OC)c(OC)c(OC)c2)nc(N)n1 [SBI-0633825]

>  <cmp>
<

>  <measured_result>
5.00

$$$$
>  <compound>
COc1cc(CNc2ccnc(N)n2)cc(OC)c1OC [SBI-0634911]

>  <cmp>
<

>  <measured_result>
5.00

$$$$

----------
molecular target: human full length Hsp90 (Homo sapiens, UniProt P07900); construct: amino acid residues 1 to 732 of human Hsp90 (GenBank: BC121062.2); made in house; host or cells: E. coli BL21DE3 (pET15b); experiment: Fluorescence polarization Hsp90 competitive binding assay (GM-FITC displacement); details: Table II, binding affinities ranked by potency; read-out: IC50
pIC50: −log10 of the molar value.
Measured pIC50 by item

>  <smiles_representation>
COc1c(C)cnc(CNc2nc(N)nc3[nH]cnc23)c1C

>  <target_entity>
human full length Hsp90 (Homo sapiens, UniProt P07900)

>  <pIC50>
< 5.00

$$$$
>  <smiles_representation>
COc1cccc(CNc2cc(Cl)nc(N)n2)c1

>  <target_entity>
human full length Hsp90 (Homo sapiens, UniProt P07900)

>  <pIC50>
< 5.00

$$$$
>  <smiles_representation>
COc1c(C)cnc(CN(CCc2ccc3c(c2)OCO3)c2cc(Cl)nc(N)n2)c1C

>  <target_entity>
human full length Hsp90 (Homo sapiens, UniProt P07900)

>  <pIC50>
6.43

$$$$
